PROCEDURE DETAILS: Inhibition of HIV-1 […]
Design: species or system Human immunodeficiency virus 1
READOUT: EC50 (nM)
Numeric only. Scale: nM

[N-]=[N+]=N[C@]1(CO)O[C@@H](n2ccc(N)nc2=O)[C@@H](F)[C@@H]1O [RO-0622] has a reported EC50 of 1200

----------
STUDY TARGET: UniProt Q72547
PROCEDURE DETAILS: Inhibition of wild type HIV-1 reverse transcriptase
READOUT: EC50 (nM)
Numeric only. Scale: nM

- [N-]=[N+]=N[C@]1(COP(=O)(O)OP(=O)(O)OP(=O)(O)O)O[C@@H](n2ccc(N)nc2=O)[C@@H](F)[C@@H]1O: 0.03

The record that follows has no EC50 shown yet.
Field EC50 (UniProt Q72547), entry [N-]=[N+]=N[C@]1(CO)O[C@@H](n2ccc(N)nc2=O)[C@@H](O)[C@@H]1O : 0.03
